system-name: Keap1/Nrf2 (Homo sapiens)
Sequence (Q16236 whole entry): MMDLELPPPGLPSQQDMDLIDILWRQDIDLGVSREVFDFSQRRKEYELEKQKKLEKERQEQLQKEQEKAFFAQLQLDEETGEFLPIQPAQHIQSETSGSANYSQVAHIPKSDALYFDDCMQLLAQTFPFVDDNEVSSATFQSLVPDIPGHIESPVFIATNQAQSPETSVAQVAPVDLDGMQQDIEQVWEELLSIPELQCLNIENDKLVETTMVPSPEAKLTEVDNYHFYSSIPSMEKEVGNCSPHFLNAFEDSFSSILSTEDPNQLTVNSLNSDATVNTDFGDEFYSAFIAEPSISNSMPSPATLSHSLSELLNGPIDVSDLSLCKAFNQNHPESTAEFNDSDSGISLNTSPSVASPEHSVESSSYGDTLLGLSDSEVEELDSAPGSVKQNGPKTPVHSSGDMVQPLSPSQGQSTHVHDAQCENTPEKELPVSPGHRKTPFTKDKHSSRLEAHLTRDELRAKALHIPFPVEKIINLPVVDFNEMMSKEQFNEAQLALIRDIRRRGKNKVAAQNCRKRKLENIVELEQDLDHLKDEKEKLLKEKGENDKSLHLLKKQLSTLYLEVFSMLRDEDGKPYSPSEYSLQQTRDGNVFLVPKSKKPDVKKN
Sequence (Q14145 whole entry): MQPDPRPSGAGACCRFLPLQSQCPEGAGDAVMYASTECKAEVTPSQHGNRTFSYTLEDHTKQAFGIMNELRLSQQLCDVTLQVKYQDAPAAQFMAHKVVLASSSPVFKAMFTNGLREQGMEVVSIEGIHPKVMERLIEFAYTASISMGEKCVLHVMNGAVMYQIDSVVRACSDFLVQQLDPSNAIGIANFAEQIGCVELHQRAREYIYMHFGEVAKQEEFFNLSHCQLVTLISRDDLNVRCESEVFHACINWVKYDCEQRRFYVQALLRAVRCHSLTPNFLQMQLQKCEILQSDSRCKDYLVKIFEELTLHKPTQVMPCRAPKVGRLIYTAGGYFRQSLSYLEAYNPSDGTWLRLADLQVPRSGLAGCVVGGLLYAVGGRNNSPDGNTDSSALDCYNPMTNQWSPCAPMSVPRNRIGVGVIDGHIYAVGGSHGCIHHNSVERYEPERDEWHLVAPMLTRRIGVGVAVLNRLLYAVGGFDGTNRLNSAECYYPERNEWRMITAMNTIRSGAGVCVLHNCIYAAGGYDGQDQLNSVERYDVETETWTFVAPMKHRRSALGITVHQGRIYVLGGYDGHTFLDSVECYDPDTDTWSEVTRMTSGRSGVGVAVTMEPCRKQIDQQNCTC
assay-details: Inhibition of Keap1-Nrf2 (unknown origin) interaction assessed as compound's equilibrium dissociation constant after 60 mins by fluorescence anisotropy assay
pKd: −log10 of the molar value.
Answer F if pKd is under 5, and T if it is 5 or more.

Q: Could you please find out whether O=C(O)CSc1cc(NS(=O)(=O)c2cccs2)c2ccccc2c1O has pKd that meets 5 or exceeds it?
Ans: F

Q: Could you please find out whether CCOc1cc(/C=C2\N=C(c3ccccc3)OC2=O)cc(Br)c1OCC(=O)O has pKd that meets 5 or exceeds it?
Ans: F

Q: Could you please find out whether O=S(=O)(Nc1cc(Sc2nc[nH]n2)c(O)c2ccccc12)c1ccc2ccccc2c1 has pKd that meets 5 or exceeds it?
Ans: T

Q: Could you please find out whether O=C1NN(c2cccc(F)c2)C(=O)/C1=C\c1ccc(-c2ccc(C(=O)O)cc2)o1 has pKd that meets 5 or exceeds it?
Ans: F

Q: Could you please find out whether O=C(O)CSc1cc(NS(=O)(=O)c2cccc3cccnc23)c2ccccc2c1O has pKd that meets 5 or exceeds it?
Ans: F

Q: Could you please find out whether O=C(O)CSc1cc(NS(=O)(=O)c2ccc(Br)cc2)c2ccccc2c1O has pKd that meets 5 or exceeds it?
Ans: F

Q: Could you please find out whether Cc1cc(C)c(S(=O)(=O)Nc2cc(Cl)c(O)c(Sc3nc[nH]n3)c2)cc1C has pKd that meets 5 or exceeds it?
Ans: F

Q: Could you please find out whether Cc1ccc(S(=O)(=O)Nc2cc(Sc3nc(C)cc(C)n3)c(O)c3ccccc23)cc1 has pKd that meets 5 or exceeds it?
Ans: F

Q: Could you please find out whether O=C(CN1C(=O)S/C(=C\c2cccn2-c2ccc(O)cc2)C1=O)Nc1ccccc1F has pKd that meets 5 or exceeds it?
Ans: F

Q: Could you please find out whether Cc1cc(C)c(S(=O)(=O)Nc2cc3sc(=O)oc3c3ccccc23)cc1C has pKd that meets 5 or exceeds it?
Ans: F

Q: Could you please find out whether Cc1ccc(S(=O)(=O)Nc2cc(SCC(=O)O)c(O)c3ccccc23)cc1 has pKd that meets 5 or exceeds it?
Ans: F

Q: Could you please find out whether Cc1cc(C)c(S(=O)(=O)Nc2cc(SCC(=O)O)c(O)c3ccccc23)c(C)c1 has pKd that meets 5 or exceeds it?
Ans: T

Q: Could you please find out whether COc1ccc(S(=O)(=O)Nc2cc(Sc3nc[nH]n3)c(O)c3ccccc23)cc1 has pKd that meets 5 or exceeds it?
Ans: T

Q: Could you please find out whether COc1ccc(-n2cccc2/C=C2\SC(=O)N(CC(=O)Nc3cccc(C)c3)C2=O)cc1 has pKd that meets 5 or exceeds it?
Ans: F

Q: Could you please find out whether Cc1ccc(N2NC(=O)/C(=C/c3ccc(-c4ccc(S(=O)(=O)Nc5nccs5)cc4)o3)C2=O)cc1 has pKd that meets 5 or exceeds it?
Ans: F

Q: Could you please find out whether O=C1NN(c2ccccc2)C(=O)/C1=C\c1ccc(-c2ccc(C(=O)O)c(Cl)c2)o1 has pKd that meets 5 or exceeds it?
Ans: F

Q: Could you please find out whether CN1C(=O)S/C(=C\c2cccn2-c2cccc(C(=O)O)c2)C1=O has pKd that meets 5 or exceeds it?
Ans: F

Q: Could you please find out whether COc1ccc(NC(=O)CN2C(=O)S/C(=C\c3cccn3-c3ccc(C(=O)O)cc3)C2=O)cc1 has pKd that meets 5 or exceeds it?
Ans: F
